target: T1, DR4G99: Human HLA-DRA1*01:02/DRB1*01:01 ECD with collagen peptide CII_1236-1249 (human); assay: MSD ECL; antigen coated; mAb 0.2 µg/ml
T1 construct: also called DRG99
Recorded measurements of log10(ECL signal), one per entry
Could you please treat all values as log10 of ECL signal in ECL?

Here are 4 binders together with their reported answers.
# binder, readout kind, endpoint value
records = [
    ("DR4B30 (antibody, human IgG2, kappa, V domains shown, also called VH DR4H39 / VL PH9L3) VH: EVQLVQSGAEVKKPGESLKISCKGSGYSFTSDWIGWVRQMPGKGLEWMGIIRPGDSDTYYSPSFQGQVTISADKSISTAYLQWSSLKASDTAVYYCARESYYYVGVRYRPSYYFDYWGQGTLVTVSS VL: EIVLTQSPATLSLSPGERATLSCRASQSVSSYLAWYQQKPGQAPRLLIYDASNRATGIPARFSGSGSGTDFTLTISSLEPEDFAVYYCQQRSNWPLTFGQGTKVEIKR", "log10(ECL signal)", 6.08),
    ("DR4B127 (antibody, human IgG2, kappa, V domains shown, also called VH DR4H7 / VL PH9L3) VH: QVQLVQSGAEVKKPGSSVKVSCKASGGTFKSYYIHWVRQAPGQGLEWMGGIRPISGNAEYAQKFQGRVTITADESTSTAYMELSSLRSEDTAVYYCARDASYYRNYGFDYWGQGTLVTVSS VL: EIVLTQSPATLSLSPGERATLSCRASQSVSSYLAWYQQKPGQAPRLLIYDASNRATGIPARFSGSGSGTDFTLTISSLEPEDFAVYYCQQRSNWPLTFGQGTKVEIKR", "log10(ECL signal)", 5.86),
    ("DR4B98 (antibody, human IgG2, kappa, V domains shown, also called VH DR4H50 / VL PH9L3) VH: QVQLVQSGAEVKKPGSSVKVSCKASGGTFKSYYIHWVRQAPGQGLEWMGGIAPIYGTAYYAQKFQGRVTITADESTSTAYMELSSLRSEDTAVYYCARDASWARAYGFDYWGQGTLVTVSS VL: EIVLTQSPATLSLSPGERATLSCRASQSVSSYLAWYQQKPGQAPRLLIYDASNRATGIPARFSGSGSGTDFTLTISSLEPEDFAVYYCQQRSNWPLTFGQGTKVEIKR", "log10(ECL signal)", 4.70),
    ("DR4B6 (antibody, V domains shown, also called L243 re-engineered as IgG2sigma) VH: QIQLVQSGPELKKPGETVKISCKASGFTFTNYGMNWVKQAPGKGLKWMGWINTYTREPTYADDFKGRFAFSLETSASTAYLQINNLKNEDTAKYFCARDITAVVPTGFDYWGQGTTLTVSS VL: DIQMTQSPASLSVSVGETVTITCRASENIYSNLAWYRQKQGKSPQLLVFAASNLADGVPSRFSGSGSGTQYSLKINSLQSEDFGDYYCQHFWTTPWAFGGGTNLEIK", "log10(ECL signal)", 6.09),
]

In the following, a different binder is considered.
Give the measured log10(ECL signal) of DR4B5 (antibody, V domains shown, also called apolizumab (1D10) re-engineered as IgG2sigma) VH: QVQLQESGPGLVKPSETLSLTCTVSGFSLTNYGVHWVRQSPGKGLEWIGVKWSGGSTEYNAAFISRLTISKDTSKNQVSLKLNSLTAADTAVYYCARNDRYAMDYWGQGTLVTVSS VL: DIQMTQSPSSLSASVGDRVTITCRASENIYSYLAWYQQKPGKAPKLLVSNAKTLAEGVPSRFSGSGSGKQFTLTISSLQPEDFATYYCQHHYGNSYPFGQGTKLEIK .
6.07
